assay: TNF-a-driven NF-kB reporter inhibitors, primary screen, selectivity assay for NOD1/NOD2 signaling inhibitor project, cell-based, HEK293T NF-kB-Luc, luminescence (AID 1852); conditions: TNF-a induced, 14 h, at 4 µM
Screen size: about 2,500 compounds; about 1,100 (44%) were called active.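 How the source made its calls: active means inhibition above 50% at 4 µM in the single-point screen; inactive means inhibition of 50% or less.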 So high a share suggests a set chosen from earlier hits. The list shows a part of the results.
Pick from active, inactive when you respond.

Cc1nc(SCCC(=O)O)c2cc(-c3ccccc3)sc2n1 inactive

Q. Returns: the outcome recorded for `Clc1c(Cl)c(Cl)c2n[nH]nc2c1Cl` in this assay.
A. inactive

Q. Returns: the outcome recorded for `O=C(/C=C/c1ccc([N+](=O)[O-])s1)N1CCCCC1` in this assay.
A. active

Q. Returns: the outcome recorded for `Cc1sc2nc(-c3ccccn3)[nH]c(=O)c2c1-c1ccccc1` in this assay.
A. inactive

Q. Returns: the outcome recorded for `O=c1[nH]c(-c2ccccn2)nc2sc(-c3ccccc3)cc12` in this assay.
A. active

Q. Returns: the outcome recorded for `O=C(/C=C/c1ccc([N+](=O)[O-])s1)N1CCN(c2ccccc2)CC1` in this assay.
A. inactive

====

experiment: TNF-a-driven NF-kB reporter inhibitors, primary screen, selectivity assay for NOD1/NOD2 signaling inhibitor project, cell-based, HEK293T NF-kB-Luc, luminescence (AID 1852); conditions: TNF-a induced, 14 h, at 4 µM, stronger effect = higher value
Screen size: about 2,500 compounds; about 1,100 (44%) were called active. So high a share suggests a set chosen from earlier hits. Some of the results follow.
Decision: inhibition compared against 20%; not below it gives TRUE, below it gives FALSE.

Worked examples, 10 compounds total:
O=S(=O)(c1ccc(N=C2NN=C(c3cc(F)ccc3F)CS2)cc1)N1CCOCC1 TRUE
O=c1nc(/C=C/c2ccccc2C(F)(F)F)cc(C(F)(F)F)[nH]1 FALSE
CCCc1nc2c(=O)n(C)c(=O)nc-2n(C)n1 TRUE
Cc1ccc(-c2csc3ncnc(Sc4nnc(CN5CCCCCC5=O)o4)c23)cc1 TRUE
O=C(Nc1ccc(S(=O)(=O)N2CCOCC2)cc1)c1cc(-c2cc(Cl)ccc2O)n[nH]1 FALSE
CCCNc1c(NS(=O)(=O)c2ccc3c(c2)CCCC3)c(=O)oc2ccccc12 FALSE
CCCCCCCC[n+]1cccc2c3ccccc3ccc21 TRUE
CCC(C)(C)c1ccc(OCCCC[n+]2cccc(C)c2C)c(C(C)(C)CC)c1 FALSE
O=c1cc(C(F)(F)F)[nH]c2ccc(C(F)(F)F)cc12 TRUE
Cn1c(O)c(N=NC(=S)Nc2ccccc2F)c2cc(S(=O)(=O)N3CCOCC3)ccc21 FALSE

Attention now turns to another entry.
Q. Does `CCCCCCCCC[n+]1cccc2c3ccccc3ccc21` have a reported inhibition of at least 20%?
A. TRUE

====

experiment: TNF-a-driven NF-kB reporter inhibitors, primary screen, selectivity assay for NOD1/NOD2 signaling inhibitor project, cell-based, HEK293T NF-kB-Luc, luminescence (AID 1852); settings: TNF-a induced, 14 h, at 4 µM
About 1,100 (44%) of roughly 2,500 compounds were called active.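 Rule for the calls: active = inhibition above 50% at 4 µM in the single-point screen; inactive = inhibition of 50% or less.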 So high a share suggests a set chosen from earlier hits. This is one part of the list.
Pick from active, inactive when you respond.

compound	category.label
COc1ccc(C)cc1NC(=O)C1CCN(S(=O)(=O)c2cccc3nonc23)CC1	active
COc1cc(/C=C2/CCc3ccccc3C2=O)cc(OC)c1OC	inactive
COc1cc(/C=C2\CC(C(C)(C)C)C/C(=C\c3cc(OC)c(OC)c(OC)c3)C2=O)cc(OC)c1OC (stereo not given)	active
Cc1ccc(CNC(=O)C2CCCN(S(=O)(=O)c3cccc4nonc34)C2)cc1 (stereo not given)	inactive

Q. Returns: the outcome recorded for `O=C1C(=O)c2ccc(-c3ccccc3)cc2-c2ccccc21` in this assay.
A. active
